# Extent of disease by histologic score (combined): number of animals in scoring group 0.5 per entry
tested on: Pneumocystis carinii; assay: Treatment of Pneumocystis carinii pneumonia in Sprague-Dawley rats (extent of disease by histologic score); assay type: in vivo, male Sprague-Dawley rats; details: Table XII composite, tested at 2.5 mg/kg; 0.5 = <10 cysts found per 2 sections
OBSERVABLE: Extent of disease by histologic score (combined): number of animals in scoring group 0.5 (animals)

MOLECULE: N=C(N)c1ccc(OCCCCCOc2ccc(C(=N)N)cc2Cl)c(Cl)c1
VALUE_MEASURED: 0
//
MOLECULE: CN1CCN=C1c1ccc(OCCCCOc2ccc(C3=NCCN3C)cc2)cc1
VALUE_MEASURED: 0
//
MOLECULE: COc1cc(C2=NCCN2)ccc1OCCCOc1ccc(C2=NCCN2)cc1OC
VALUE_MEASURED: 6
//
MOLECULE: COc1cc(C(=N)N)ccc1OCCCCCOc1ccc(C(=N)N)cc1OC
VALUE_MEASURED: 2
//
MOLECULE: N=C(N)c1ccc(OCCCCOc2ccc(C(=N)N)cc2[N+](=O)[O-])c([N+](=O)[O-])c1
VALUE_MEASURED: 0
//
MOLECULE: N=C(N)c1ccc(OCCCCOc2ccc(C(=N)N)cc2Cl)c(Cl)c1
VALUE_MEASURED: 0
//
MOLECULE: CN1CCN=C1c1ccc(OCCCCCOc2ccc(C3=NCCN3C)cc2)cc1
VALUE_MEASURED: 0
